The reported numbers originate from patent US10238638B2.

molecular target: PAR4 (Homo sapiens (Human), UniProt Q96RI0); experiment: FLIPR assay in PAR4-expressing HEK293 cells (calcium mobilization); conditions: H-Ala-Phe(4-F)-Pro-Gly-Trp-Leu-Val-Lys-Asn-Gly-NH2-induced calcium mobilization, PAR4 antagonist activity
Sequence (Q96RI0 18-385): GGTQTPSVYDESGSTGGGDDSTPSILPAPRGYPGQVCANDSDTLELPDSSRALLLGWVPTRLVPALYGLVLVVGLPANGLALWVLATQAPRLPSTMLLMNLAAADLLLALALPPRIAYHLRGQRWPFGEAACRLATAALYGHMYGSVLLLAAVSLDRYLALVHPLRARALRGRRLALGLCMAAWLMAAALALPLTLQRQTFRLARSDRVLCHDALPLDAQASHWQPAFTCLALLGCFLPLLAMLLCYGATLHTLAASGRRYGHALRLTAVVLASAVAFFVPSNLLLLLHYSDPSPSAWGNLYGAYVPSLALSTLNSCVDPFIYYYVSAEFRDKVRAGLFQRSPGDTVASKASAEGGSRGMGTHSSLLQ
Measurement Type: pIC50
# pIC50 is unitless: minus log10 of the molar concentration; print number only

Recorded pIC50 of COc1cc(OCc2csc(-c3ccc(C(=O)N4CCC[C@H](O)C4)cc3)n2)c2sc(-c3cn4nc(C)ccc4n3)nc2c1 , please.
5.00

Give the measured pIC50 of CCc1nn2cc(-c3nc4cc(OC)cc(OCc5csc(-c6ccc(C(=O)OC(C)(C)C)cc6)n5)c4s3)nc2s1 .
5.70

I am curious: what pIC50 value has been reported for CCc1nn2cc(-c3nc4cc(OC)cc(OCc5csc(-c6ccc(C(=O)N(C)C)cc6)n5)c4s3)nc2s1 ?
5.92

What value of pIC50 has been recorded for this entry: COc1cc(OCc2csc(-c3ccc(C(=O)N(C)C)cc3)n2)c2sc(-c3cn4nc(C)ccc4n3)nc2c1
5.59

// pIC50 lookup, key: COc1cc(OCc2csc(-c3ccc(C(=O)N(C)C4CCOCC4)cc3)n2)c2sc(-c3cn4nc(C)sc4n3)nc2c1
6.01

Reported pIC50 for COc1cc(OCc2csc(-c3ccc(C(=O)N4CCC[C@H](O)C4)cc3)n2)c2sc(-c3cn4nc(C)sc4n3)nc2c1 : what is it?
5.38

Please report the recorded pIC50 for COc1cc(OCc2csc(-c3ccc(C(=O)O)cc3)n2)c2sc(-c3cn4nc(C(C)(F)F)sc4n3)nc2c1 .
4.06
